- protocol text: chemical genetic growth profiling, strain panel (AID 1159580);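 note: tested at 20 µM; growth read once vehicle control cultures reached saturation at 30 °C; 1 = growth at the plate median or of vehicle wells; lower values mean less growth of the strain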
- condition notes: S. cerevisiae deletion strains, growth OD, locus YML032C, strain rad52, stronger effect = lower value
About 2,000 (36%) of roughly 5,500 compounds were called active. Inconclusive results (about 18%) are left out. The list shows a part of the results.
observation type: normalized growth

molecule | normalized growth
CS(=O)(=O)CCCCN=C=S | 0.801 (active)
Nc1nc2ncc(C(=O)O)nc2c(=O)[nH]1 | 1.02 (inactive)
C=CC(C)(O)CC/C=C(\C)CCC=C(C)C (stereo not drawn) | 0.926 (inactive)
Nc1ncnc2c1ncn2C1O[C@H](COP(=O)(O)O)[C@@H](O)[C@H]1O (stereo partly drawn) | 0.417 (active)
O=c1[nH]c(=O)n(C2C[C@@H](O)[C@@H](CO)O2)cc1F (stereo partly drawn) | 1 (inactive)
C=CC(C1=CC(=O)C(OC)=CC1=O)c1ccc(OC)cc1 (stereo not drawn) | 0.855 (active)

-- ask Which normalized growth value belongs to Nc1nc2c(ncn2C2C[C@H](O)[C@@H](CO)O2)c(=O)[nH]1 (stereo partly drawn) ?
-- reply 0.408 (active)

-- ask Which normalized growth value belongs to CCCCC(CC)CN1CN(CC(CC)CCCC)CC(C)(N)C1 (stereo not drawn) ?
-- reply 0.407 (active)

-- ask Which normalized growth value belongs to CC(=O)NCCCCCC(=O)O ?
-- reply 0.986 (inactive)

-- ask Which normalized growth value belongs to C=CC(C1=CC(=O)C(OC)=CC1=O)c1ccc(O)cc1 (stereo not drawn) ?
-- reply 0.947 (inactive)

-- ask Which normalized growth value belongs to CCOP(=S)(OCC)SCn1c(=O)oc2cc(Cl)ccc21 ?
-- reply 0.998 (inactive)

-- ask Which normalized growth value belongs to O=C(O)/C=C/C=C/c1ccccc1 ?
-- reply 0.908 (inactive)

-- ask Which normalized growth value belongs to OC[C@@H]1CCCN2CCCC[C@H]12 ?
-- reply 0.995 (inactive)
